# Assay Protocol: NCI Yeast Anticancer Drug Screen. Data for the sgs1 mgt1 strain (AID 161);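 further: 0% = growth of cultures given vehicle only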
# Recorded Conditions: S. cerevisiae sgs1 mgt1 strain, at 50.0 µM, stronger effect = higher value
About 79,000 compounds went through this panel and 15% of them were active in at least one assay; those are over-represented in the sample as a whole.
Endpoint Name: growth inhibition (%)
Your answer is read as %, so omit the unit and give the number.

Look over these answered cases.
CC(C)n1nnc2c3ccccc3c3ccccc3c21; 11.8
CCCCN(CCCC)CCNc1ccc(NS(=O)(=O)c2ccccc2)c2sc3ccccc3c(=O)c12; 98.2
Clc1ccc(SSc2ccc(Cl)cn2)nc1; 57.9
Cc1[nH]nc(C(F)(F)F)c1N=NN1CCC(C(N)=O)CC1; 99.5
O=C1CN=C(c2ccccc2)N(c2ccccc2)N1; 94.5

Incoming: Return reported growth inhibition; argument: `CC(=O)OC/C=C/CCCOC(C)=O`
Outgoing: 84

---

# Assay Protocol: NCI Yeast Anticancer Drug Screen. Data for the sgs1 mgt1 strain (AID 161);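 further: 0% = growth of cultures given vehicle only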
# Recorded Conditions: S. cerevisiae sgs1 mgt1 strain, at 5.0 µM (retest, dose inferred, filed as 0.5), stronger effect = higher value
Compounds without any hit were thinned out: in the full panel of roughly 79,000, 15% have a hit.
Endpoint Name: growth inhibition (%)
Your answer is read as %, so omit the unit and give the number.

Look over these answered cases.
S=C1NC2=C(CSC/C2=C\c2ccccc2)C(c2ccccc2)N1 (configuration not stated); 8
CCOC(=O)N1C2C=CC(=O)C(C=C2)N1C(=O)OCC (configuration not stated); 1
O=C1CC2Sc3ccccc3N=C2N1c1ccc(Cl)cc1Cl (configuration not stated); 42
O=C(CC(c1cccnc1)C(C(=O)c1ccc(Cl)cc1)C(CC(=O)c1ccc(Cl)cc1)c1cccnc1)c1ccc(Cl)cc1 (configuration not stated); 56
C1CCC(CCNCCC2CCCCC2)CC1; 25
CC(C)C(=O)/C=C/c1c(Cl)cccc1Cl; 11
CCCCCCCCCCCC(=O)OCC1CO1 (configuration not stated); 6
COc1ccc(NS(=O)(=O)c2ccc(F)cc2)cc1; -26

Incoming: Return reported growth inhibition; argument: `O=[N+]([O-])/C=C/c1cc2ccccc2[nH]1`
Outgoing: 9

Incoming: Return reported growth inhibition; argument: `Cc1cc(Cl)ccc1N1C(=O)C(=O)C(c2nc3ccccc3o2)C(=O)C1=O`
Outgoing: 38

Incoming: Return reported growth inhibition; argument: `CC(C)(COC(=O)Nc1cccc(Cl)c1)[N+](=O)[O-]`
Outgoing: -1

Incoming: Return reported growth inhibition; argument: `S=C(C(=S)N1CCOCC1)N1CCOCC1`
Outgoing: 19

---

# Assay Protocol: NCI Yeast Anticancer Drug Screen. Data for the bub3 strain (AID 167)
# Recorded Conditions: S. cerevisiae bub3 mutant strain, at 50.0 µM (retest, dose inferred, filed as 5.0), stronger effect = higher value
This is part of a sample that, as a whole, favours compounds with a hit. Of some 79,000 tested, about 15% had one in any assay.
Endpoint Name: growth inhibition (%)
Your answer is read as %, so omit the unit and give the number.

Look over these answered cases.
CCCCCCCCC1(OCCCS(=O)(=O)O)COc2ccccc2OCCOCCOc2ccccc2OC1; 80
O=C(O)C1CC[N-]CC1.O=C(O)C1CC[N-]CC1.[Cl][Pt+2]([Cl])([Cl])[Cl]; 93

Incoming: Return reported growth inhibition; argument: `COc1cc(C)c2sc3ccccc3c(=O)c2c1NCCCN(C)C`
Outgoing: 53

Incoming: Return reported growth inhibition; argument: `Cc1cc2c(Br)cc(Br)c(O)c2nc1C(=O)c1ccccc1`
Outgoing: 87

Incoming: Return reported growth inhibition; argument: COc1ccccc1NC(=O)CC(=O)N1N=C(C)C(N=Nc2ccc(I)cc2)C1=O (stereo not given)
Outgoing: 41

---

# Assay Protocol: NCI Yeast Anticancer Drug Screen. Data for the rad50 strain (AID 155);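 further: 0% = growth of vehicle-only cultures of the same strain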
# Recorded Conditions: S. cerevisiae rad50 strain growth inhibition; at 5.0 µM (retest, dose inferred, filed as 0.5)
The panel holds about 79,000 compounds, 15% with a hit somewhere; the sample as a whole holds those more often. Calls of active or inactive are those of the source. Cut-off read from the data, not from the text of the source: active = growth inhibition above about 70%; inactive = the rest.
Tick one outcome: active, inactive

Use the examples below as a reference point.
COC(=O)/C(=N\NC(=O)c1ccccc1O)C(C#N)c1ccc(Cl)cc1 (stereo unspecified); inactive
CCCC/C=C(/CCCNCCCC)[Si](C)(C)C; active
COc1ccc(C(O)(c2ccccc2)c2ccccc2)cc1; inactive
OCCN=C1c2ccccc2C2C(c3ccccc31)C1c3ccccc3C(=NCCO)c3ccccc3C21 (stereo unspecified); inactive
CC(=O)OC(c1ccc(Cl)cc1)c1ccc(Cl)cc1; inactive

Shifting focus to the compound that follows.
Incoming: Fill in: this test's call for `O=C(/C(=C/c1ccc2c(c1)OCO2)c1ccccc1)c1ccc(OCCN2CCCC2)cc1` is ___
Outgoing: inactive

---

# Assay Protocol: NCI Yeast Anticancer Drug Screen. Data for the bub3 strain (AID 167)
# Recorded Conditions: S. cerevisiae bub3 mutant strain, at 50.0 µM (retest, dose inferred, filed as 5.0)
About 79,000 compounds went through this panel and 15% of them were active in at least one assay; those are over-represented in the sample as a whole. Active and inactive are the calls of the source. Cut-off read from the data, not from the text of the source: active = growth inhibition above about 70%; inactive = the rest.
Tick one outcome: TRUE = active, FALSE = inactive

Use the examples below as a reference point.
O=C(SC(O)c1ccc(Cl)cc1)c1ccccc1 (stereo unspecified); FALSE
O=S(c1ccccc1)c1c(Cl)c(Cl)nc(Cl)c1Cl (stereo unspecified); TRUE
CCCCC(=O)c1nc(N(CC2CCCCC2)C(=O)NC)sc1N; FALSE
Oc1c(Cl)cc(C(c2cc(Cl)c(O)c(Cl)c2)C(c2cc(Cl)c(O)c(Cl)c2)c2cc(Cl)c(O)c(Cl)c2)cc1Cl; TRUE

Incoming: Fill in: this test's call for `CC(=O)/C(=C\c1ccc(N(C)C)cc1)C(C)=[N+](C)C(=O)c1c(/[N+](C)=C(C)\C(=C\c2ccc(N(C)C)cc2)C(C)=O)ncn1C` is ___
Outgoing: FALSE

Incoming: Fill in: this test's call for `O=Cc1cc2c(s1)C(=O)c1sccc1C2=O` is ___
Outgoing: TRUE

---

# Assay Protocol: NCI Yeast Anticancer Drug Screen. Data for the cln2 rad14 strain (AID 165);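 further: 0% = growth equal to vehicle treated cultures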
# Recorded Conditions: S. cerevisiae cln2 rad14 strain, at 5.0 µM (retest, dose inferred, filed as 0.5), stronger effect = higher value
Compounds without any hit were thinned out: in the full panel of roughly 79,000, 15% have a hit.
Entries and their measured growth inhibition follow.
Your answer is read as %, so omit the unit and give the number.

Look over these answered cases.
Cc1ccccc1NC(=O)C(=O)C(C#N)c1c(Cl)cccc1Cl (configuration not stated); 0
OC(c1cc(-c2ccc(Cl)cc2Cl)nc2ccccc12)C1CCCCN1 (configuration not stated); -3
CCCCCCCCCCCCCCCC(=O)N(CCCN(CC)CC)C(C)CCCN(CC)CC (configuration not stated); 36
CC(=O)OCC1OC(n2c(O)c(N=NC(N)=S)c3ccc([N+](=O)[O-])cc32)C(OC(C)=O)C1OC(C)=O (configuration not stated); -33
CCOC1=C(c2ccccc2)Sc2ccc(C)cc2C1c1ccc(C)cc1 (configuration not stated); -4

Incoming: Return reported growth inhibition; argument: `O=C(O)c1ccccc1-c1c2cc(I)c(=O)c(I)c-2oc2c(I)c(O)c(I)cc12`
Outgoing: 5

Incoming: Return reported growth inhibition; argument: CC(Nc1ccc(S(=O)(=O)Nc2ncccn2)cc1)c1ccc2cccnc2c1O (configuration not stated)
Outgoing: 19

Incoming: Return reported growth inhibition; argument: COc1ccc(OC2OC(COC(c3ccccc3)(c3ccc(OC)cc3)c3ccc(OC)cc3)C(O)C(O)C2O)cc1 (configuration not stated)
Outgoing: 11

Incoming: Return reported growth inhibition; argument: COc1ccc(C(CN2CCOCC2)C(C)=O)cc1OC (configuration not stated)
Outgoing: 7

Incoming: Return reported growth inhibition; argument: `Cc1ccccc1-n1c(N)c(-c2nc3ccccc3[nH]2)sc1=S`
Outgoing: 37

Incoming: Return reported growth inhibition; argument: CCCCCN(CCCCC)CC(O)c1cccc2cc(Cl)ccc12 (configuration not stated)
Outgoing: -4

Incoming: Return reported growth inhibition; argument: CCCC(=O)OCC1CC2C=CC1C2 (configuration not stated)
Outgoing: -7

---

Entries and their measured growth inhibition follow.
# Assay Protocol: NCI Yeast Anticancer Drug Screen. Data for the cln2 rad14 strain (AID 165);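 further: 0% = growth equal to vehicle treated cultures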
# Recorded Conditions: S. cerevisiae cln2 rad14 strain, at 50.0 µM (retest, dose inferred, filed as 5.0), stronger effect = higher value
# Description: Growth inhibition of yeast strains with defined genetic alterations is measured as a screen for potential anti-cancer activity. Selected strains with alterations in DNA damage repair or cell cycle control were exposed to compounds and growth inhibition was measured relative to vehicle treated controls. The strain used in this assay is cln2 rad14
This is part of a sample that, as a whole, favours compounds with a hit. Of some 79,000 tested, about 15% had one in any assay.
Your answer is read as %, so omit the unit and give the number.

O=c1c(-c2ccccc2)c1-c1ccccc1; 96
Cn1c2ccccc2c2cc3cnccc3cc21; 88
ClC1c2ccccc2Cc2cccnc21 (configuration not stated); 22
CCCCN(CCCC)S(=O)(=O)c1ccccc1; -9
COc1cccc2c1C(=O)c1c(O)c3c(c(O)c1C2=O)C[C@@](O)(/C(C)=N/NC(N)=S)C[C@@H]3OC1CC(N)C(O)C(C)O1 (some centres not stated); 38
O=C1C=C(OCC=C(C(F)(F)F)C(F)(F)F)C(=O)c2ccccc21; 25
CCCN(CCC)C(=O)C(C)C; -4
O=S(=O)(CCCCl)SCCCCl; 99
O=C(Nc1ccc(Cl)cc1Cl)C1C(=O)OC2(CCCCC2)OC1=O; 98
O=c1[nH]c(C(F)(F)F)c(F)c(=O)[nH]1; 5

Incoming: Return reported growth inhibition; argument: `O=C1c2ccc(S(=O)(=O)O)cc2C(=O)c2ccc(S(=O)(=O)O)cc21`
Outgoing: 26

Incoming: Return reported growth inhibition; argument: `Clc1sc2ccccc2c1Cl`
Outgoing: -4
